target: eeAChE (electric eel AChE) (Electrophorus electricus); construct: purchased Sigma-Aldrich Co; host or cells: electric eel (natural source); test: biochemical
Sequence (O42275 24-633): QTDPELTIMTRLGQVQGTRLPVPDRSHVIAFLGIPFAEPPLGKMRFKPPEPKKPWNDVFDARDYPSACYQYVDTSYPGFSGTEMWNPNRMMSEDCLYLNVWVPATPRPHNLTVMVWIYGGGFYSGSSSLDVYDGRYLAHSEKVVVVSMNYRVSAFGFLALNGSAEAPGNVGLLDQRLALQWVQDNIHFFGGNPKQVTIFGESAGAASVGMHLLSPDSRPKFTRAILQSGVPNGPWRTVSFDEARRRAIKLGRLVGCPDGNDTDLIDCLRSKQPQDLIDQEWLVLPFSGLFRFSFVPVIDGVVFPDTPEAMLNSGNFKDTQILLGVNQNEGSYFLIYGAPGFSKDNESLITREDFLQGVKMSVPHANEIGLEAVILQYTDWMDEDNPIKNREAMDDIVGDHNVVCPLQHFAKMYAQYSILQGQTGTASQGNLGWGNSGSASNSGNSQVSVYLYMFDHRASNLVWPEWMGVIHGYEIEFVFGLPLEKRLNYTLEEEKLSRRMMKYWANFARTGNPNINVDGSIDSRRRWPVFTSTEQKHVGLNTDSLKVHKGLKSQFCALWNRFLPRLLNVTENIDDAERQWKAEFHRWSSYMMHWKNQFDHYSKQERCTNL
Below: a set of entries, each annotated with reported IC50.
State the value with its unit after it.

INSERT INTO assay_data (query_smiles, measured_value) VALUES
  ('CN(C)C(=O)Oc1ccc(OC(=O)N(C)C)c(C(=O)N2CCC(Cc3ccccc3)CC2)c1', '5.2 µM'),
  ('CCN(C)C(=O)Oc1ccc(OC(=O)N(C)CC)c(C(=O)N2CCC(Cc3ccccc3)CC2)c1', '4.9 µM'),
  ('CCN(C)C(=O)Oc1ccc(C(=O)N2CCC(Cc3ccccc3)CC2)c(OC(=O)N(C)CC)c1', '6.3 µM');

We next turn to a different compound, shown below.
Task: GET IC50 | system: eeAChE (electric eel AChE) (Electrophorus electricus) | item: CN(C)C(=O)Oc1ccc(C(=O)N2CCC(Cc3ccccc3)CC2)c(OC(=O)N(C)C)c1
Output: 7.8 µM

* * *

Molecular target: eqBuChE (equine serum BuChE) (Equus caballus)
Construct: purchased Sigma-Aldrich Co; host or cells: equine serum (natural source)
Sequence (P81908 whole entry): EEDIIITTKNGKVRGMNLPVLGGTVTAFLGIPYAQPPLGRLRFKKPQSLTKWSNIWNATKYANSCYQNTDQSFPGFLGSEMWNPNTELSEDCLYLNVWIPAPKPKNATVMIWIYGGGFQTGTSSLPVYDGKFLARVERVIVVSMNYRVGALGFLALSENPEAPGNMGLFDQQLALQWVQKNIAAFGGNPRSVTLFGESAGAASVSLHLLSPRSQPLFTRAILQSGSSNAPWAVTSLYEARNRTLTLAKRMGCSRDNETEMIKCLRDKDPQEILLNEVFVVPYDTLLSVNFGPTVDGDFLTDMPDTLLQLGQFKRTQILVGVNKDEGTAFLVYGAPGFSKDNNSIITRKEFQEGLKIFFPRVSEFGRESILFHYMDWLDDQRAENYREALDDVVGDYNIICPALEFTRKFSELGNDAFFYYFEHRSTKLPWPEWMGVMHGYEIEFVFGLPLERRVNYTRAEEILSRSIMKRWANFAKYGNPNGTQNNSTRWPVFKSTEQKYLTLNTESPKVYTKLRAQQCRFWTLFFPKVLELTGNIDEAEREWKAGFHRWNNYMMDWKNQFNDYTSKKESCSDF
Test: biochemical
Settings: mean ± SD; read-out: IC50 ± SD eqBuChE
Procedure: 2.1 Inhibition experiments of AChE and BuChE. The modified Ellman method was performed to test the AChE and BChE inhibitory ability of the compounds, using eeAChE and eqBChE (Sigma-Aldrich Co.). […]
metric-name: IC50 (µM)
Please respond with the number in µM and leave the unit unwritten.

Known IC50 results, listed for orientation:
INSERT INTO results (query_smiles, system_under_test, metric_name, measured_value) VALUES
  ('O=C(Oc1ccc(C(=O)N2CCC(Cc3ccccc3)CC2)c(OC(=O)N2CCCC2)c1)N1CCCC1', 'eqBuChE (equine serum BuChE) (Equus caballus)', 'IC50', 8.7),
  ('CC(C)N(C(=O)Oc1ccc(C(=O)N2CCC(Cc3ccccc3)CC2)c(OC(=O)N(C(C)C)C(C)C)c1)C(C)C', 'eqBuChE (equine serum BuChE) (Equus caballus)', 'IC50', 10.8),
  ('CC(C)N(C(=O)Oc1ccc(OC(=O)N(C(C)C)C(C)C)c(C(=O)N2CCC(Cc3ccccc3)CC2)c1)C(C)C', 'eqBuChE (equine serum BuChE) (Equus caballus)', 'IC50', 16.7);

Task: Return value of IC50 for input O=C(Oc1ccc(C(=O)N2CCC(Cc3ccccc3)CC2)c(OC(=O)N2CCOCC2)c1)N1CCOCC1 , no commentary.
Output: 13.1
